System: CCRF-CEM
Experiment: NCI tumour cell line growth inhibition, 48 h
The source made the active and inactive calls. No stated cut-off is given here; in the data, active = GI50 up to about 1.1 µM and inactive = higher.
Thanks in advance; please answer with one of these: YES for active, NO for inactive

Record excerpt, results attached:
[
  {
    "Compound": "N#C/C(=N\\c1ccccc1N(C(=O)c1ccccc1)C(=O)c1ccccc1)c1ccccc1",
    "Assigned Class": "NO"
  },
  {
    "Compound": "COc1ccccc1CNCCCCCNCCCCCCCCCCNCCCCCNCc1ccccc1OC",
    "Assigned Class": "NO"
  },
  {
    "Compound": "N#Cc1nc(CCCN2C(=O)c3ccccc3C2=O)oc1N",
    "Assigned Class": "NO"
  },
  {
    "Compound": "CN(CC(=O)Nc1ccccc1C(=O)O)c1ccccc1",
    "Assigned Class": "NO"
  },
  {
    "Compound": "CC(C)(Cl)C(Br)CC/C(CBr)=C(/Cl)CCl.CC(C)(Cl)C(Br)CC/C(CBr)=C(\\Cl)CCl (configuration not stated)",
    "Assigned Class": "YES"
  }
]

I would be grateful if you could indicate the recorded call for Cc1ccc(NC(=O)/C(C#N)=C/c2ccccc2)c(C)c1 . NO

I would be grateful if you could indicate the recorded call for CCCCCCCC(=O)OCC(COC(=O)C(C)(C)C)OC(=O)Cc1ccccc1 (configuration not stated) . NO

I would be grateful if you could indicate the recorded call for COc1ccc2c(c1)[n+]([O-])c(C(=O)C/C(=N\NC(=O)C[N+](C)(C)C)C(=O)Nc1cc(Cl)ccc1Cl)c(C)[n+]2[O-] . NO

---

Tested on: BT-549
Assay: NCI tumour cell line growth inhibition, 48 h
Structures can show the parent of a compound that is named as a salt. Calls of active or inactive are those of the source. Cut-off read from the data, not from the text of the source: active = GI50 up to about 1.1 µM and inactive = higher.
Thanks in advance; please answer with one of these: active, inactive

Record excerpt, results attached:
[
  {
    "Compound": "CC[C@@]1(O)C[C@H](OC2CC(N(C)C)C(OC3CC(O)C(OC4CCC(=O)C(C)O4)C(C)O3)C(C)O2)c2c(cc3c(c2O)C(=O)c2c(O)ccc(O)c2C3=O)[C@H]1C(=O)OC (some centres undefined)",
    "Measured Target": "BT-549",
    "Assigned Class": "active"
  },
  {
    "Compound": "N=C(N)c1ccc(-c2ccc(-c3ccc(C(=N)N)cc3)o2)cc1 [FURAMIDINE HYDROCHLORIDE]",
    "Measured Target": "BT-549",
    "Assigned Class": "inactive"
  },
  {
    "Compound": "COCN1C(=O)[C@@H]2CCCN2C(=O)c2cc(OC)c(Cc3ccccc3)cc21",
    "Measured Target": "BT-549",
    "Assigned Class": "inactive"
  },
  {
    "Compound": "N#Cc1nc(CCCN2C(=O)c3ccccc3C2=O)oc1N",
    "Measured Target": "BT-549",
    "Assigned Class": "inactive"
  },
  {
    "Compound": "CCn1c2ccccc2c2ccc(C3C(C(=O)OC)=C(C)NC(C)=C3C(=O)OC)cc21",
    "Measured Target": "BT-549",
    "Assigned Class": "inactive"
  }
]

For the next question, use this compound.
I would be grateful if you could indicate the recorded call for CN(C)Cc1cc(/N=N/c2c(Cl)cccc2Cl)ccc1O . inactive

---

Tested on: KM12
Assay: NCI tumour cell line growth inhibition, 48 h
Calls of active or inactive are those of the source. Cut-off read from the data, not from the text of the source: active = GI50 up to about 1.1 µM and inactive = higher.
Property Measured: GI50

Consider the reported GI50 for these compounds:
[
  {
    "Mol": "COC(=O)C1=C(O)C(O)=C(C(=O)OC)C1",
    "GI50": "> 100 µM (inactive)"
  },
  {
    "Mol": "O=C(O)CNn1c(SCC(=O)O)nnc(/C=C/c2c(O)ccc3ccccc23)c1=O",
    "GI50": "31.6 µM (inactive)"
  },
  {
    "Mol": "Cc1cn(CCCCCCC2=NCCCN2)c(=O)[nH]c1=O",
    "GI50": "> 100 µM (inactive)"
  },
  {
    "Mol": "O=C1CNNC(Cn2nc(-c3ccccc3)c3ccccc3c2=O)=N1",
    "GI50": "> 100 µM (inactive)"
  }
]

Fill in: GI50 of COc1cc2c(cc1OCCCCCCCCN1C(=O)c3cccc4cccc(c34)C1=O)N=C[C@@H]1CCCN1C2=O is ___ 16.3 µM (inactive)

---

Items are presented alongside their recorded GI50.
Tested on: SF-268
Test: NCI tumour cell line growth inhibition, 48 h
Active and inactive are the calls of the source. Rule as the data show it: active = GI50 up to about 1.1 µM and inactive = higher.

[
  {
    "Compound": "CN(C)c1ccc(/C=C/c2ccc3ccccc3[n+]2C)cc1",
    "GI50": "4.45 µM (inactive)"
  }
]

Fill in: GI50 of CCOC(=O)c1cnc(-n2[nH]c(C)c(CCO)c2=O)[nH]c1=O is ___ > 100 µM (inactive)

Fill in: GI50 of COC(=O)CC(C(C(=O)OCc1ccccc1)C(C)O)N1C(=O)OC(c2ccccc2)C1c1ccccc1 (stereo unspecified) is ___ > 100 µM (inactive)

---

Test system: Malme-3M
Assay: NCI tumour cell line growth inhibition, 48 h
Activity calls are given as the source filed them. Rule as the data show it: active = GI50 up to about 1.1 µM and inactive = higher.
Property Measured: GI50

[
  {
    "Compound": "Cn1c2c(c3c(=O)[nH]ncc31)Cc1ccccc1-2",
    "GI50": "16.3 µM (inactive)"
  }
]

Fill in: GI50 of COC(=O)/C(=C\C(=O)c1ccc(Br)cc1)NN=C(c1ccccc1)c1ccccc1 is ___ > 10 µM (inactive)

Fill in: GI50 of COc1cc(O)c(C(=O)/C=C/c2ccc(O)cc2)cc1Oc1ccc(C(=O)/C=C/c2ccc(O)cc2)c(O)c1 [RHUSCHALCONE IV] is ___ 2.58 µM (inactive)

Fill in: GI50 of Cn1c(N)c(/C=C/C(=O)Oc2ccccc2)c(=O)n(C)c1=O is ___ > 100 µM (inactive)

Fill in: GI50 of Cc1ccccc1C(=O)c1c(O)c2c(c(O)c1Br)CCCC2 is ___ 11.5 µM (inactive)

---

Tested on: KM-20L2
Assay: NCI tumour cell line growth inhibition, 48 h
The source made the active and inactive calls. No stated cut-off is given here; in the data, active = GI50 up to about 1.1 µM and inactive = higher.
Property Measured: GI50

Consider the reported GI50 for these molecules:
[
  {
    "Molecule": "CN(C)/N=C(\\CCN1CCCC1)CC(c1ccccc1)c1c(O)c2ccccc2oc1=O (stereo not given)",
    "Property Measured": "GI50",
    "Result": "> 100 µM (inactive)"
  },
  {
    "Molecule": "COc1cc2cc3c4c(cc(OC)c(OC)c4c2cc1OC)CCN3C(=O)CCC(=O)O",
    "Property Measured": "GI50",
    "Result": "> 100 µM (inactive)"
  },
  {
    "Molecule": "O=C(Cc1ccccc1)C(c1ccccc1)S(=O)(=O)c1ccccc1 (stereo not given)",
    "Property Measured": "GI50",
    "Result": "> 100 µM (inactive)"
  },
  {
    "Molecule": "CCCCCCCCCCC/C(=N/O)c1ccc(O)c2ncccc12",
    "Property Measured": "GI50",
    "Result": "3.85 µM (inactive)"
  }
]

Next molecule, please.
Fill in: GI50 of COC(=O)/C(=N/O)C(C(=O)OC)C(=O)C(=O)Nc1c(Cl)cc(C)cc1S(=O)(=O)O (stereo not given) is ___ > 100 µM (inactive)

---

System: LOX IMVI
Assay: NCI tumour cell line growth inhibition, 48 h
The source made the active and inactive calls. Cut-off read from the data, not from the text of the source: active = GI50 up to about 1.1 µM and inactive = higher.
Property Measured: GI50

Fill in: GI50 of Cc1cc(O)c2c(c1)C(=O)c1cc(O)cc(O)c1C2=O is ___ 15.9 µM (inactive)

Fill in: GI50 of CC(C)COP(C)(=O)C(N)(C(F)(F)F)C(F)(F)F (stereo not given) is ___ > 100 µM (inactive)

Fill in: GI50 of CCC1(N)C(=O)OCc2c1cc1n(c2=O)Cc2cc3ccccc3nc2-1 (stereo not given) is ___ 4.78 µM (inactive)

Fill in: GI50 of COc1ccc(-c2nc(SCC(=O)N/N=C/c3ccc(O)c(OC)c3)[nH]c2-c2ccc(OC)cc2)cc1 is ___ 22.8 µM (inactive)

Fill in: GI50 of CCCCOC(=O)Nc1ccc(S(=O)(=O)Nc2ccccc2Cl)cc1 is ___ 18.1 µM (inactive)

Fill in: GI50 of O=C(CN1CCCCC1)c1ccc2c(c1)Sc1ccccc1O2 is ___ 10.2 µM (inactive)

Fill in: GI50 of O=C1c2ccccc2C(=O)N1CCSCC(CO)SCCN1C(=O)c2ccccc2C1=O (stereo not given) is ___ > 100 µM (inactive)

Fill in: GI50 of O=C(O)C(Cl)(c1ccccc1)c1ccccc1 is ___ > 100 µM (inactive)

Fill in: GI50 of CCCCCCCC/C=C\CCCCCCCC(=O)NCCN(CCN)C(=O)CCCCCCC/C=C\CCCCCCCC is ___ > 100 µM (inactive)

Fill in: GI50 of COC(=O)C1=C(C)NC(C)=C(C(=O)OC)C1c1ccccc1NO is ___ 40 µM (inactive)
